Give polymerase ribozyme fitness (log ratio) for every item shown.
B1: TPR t1 (parent)
chain: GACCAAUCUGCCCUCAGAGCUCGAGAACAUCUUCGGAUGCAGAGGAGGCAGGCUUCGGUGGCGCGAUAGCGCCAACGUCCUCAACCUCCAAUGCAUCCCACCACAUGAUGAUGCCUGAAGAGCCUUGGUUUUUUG

Variants of: B1
Test: polymerase ribozyme fitness, log enrichment relative to wild type (log ratio); higher = more active; in vitro selection for triplet polymerase activity
Note: the reply should be a number with no unit written.

Quick note, polymerase ribozyme fitness (log ratio) for C97G G120U U126C landed at -4.9

Quick note, polymerase ribozyme fitness (log ratio) for C101G G120A G122C landed at -2.36

Quick note, polymerase ribozyme fitness (log ratio) for C12G A46G G63C C115G landed at -4.6

Quick note, polymerase ribozyme fitness (log ratio) for A5C C11G C79U G117C landed at -1.88

Quick note, polymerase ribozyme fitness (log ratio) for G19A C20G U106C G117A landed at -6.46

Quick note, polymerase ribozyme fitness (log ratio) for C49U G51U C62U C80A G113A landed at -4.27

Quick note, polymerase ribozyme fitness (log ratio) for C13A G39U C56A landed at -2.45

Quick note, polymerase ribozyme fitness (log ratio) for C4G C123G G128C landed at -0.896

Quick note, polymerase ribozyme fitness (log ratio) for A43C G61A C85G G113A C115U landed at -5.36

Quick note, polymerase ribozyme fitness (log ratio) for A16G C49G C56G landed at -4.65

Quick note, polymerase ribozyme fitness (log ratio) for U78C A83G U106C landed at -1.19

Quick note, polymerase ribozyme fitness (log ratio) for A46U C102U landed at -4.01

Quick note, polymerase ribozyme fitness (log ratio) for C28A G69C C124A landed at -4.58

All values here come from the RNAGym collection of RNA variant scans (doi:10.1073/pnas.2313332121).
